# experiment.description: Conjugator-antibody conjugate maleimide hydrolysis (ring opening) kinetics by reduced LCMS
# Assay type: physicochemical
# measurement.context: pH 7, time point 3 h
# key: entry, value: MS DAR
observed.property: MS DAR

[[record]]
compound = "NCC(COC(=O)NCCOCCOCCOCCOCCC(=O)O)N1C(=O)C=CC1=O (stereo not shown)"
value_observed = 7.98

[[record]]
compound = "CN(C)C(=O)CCNC(=O)NCC(CN)N1C(=O)C=CC1=O (stereo not shown)"
value_observed = 8

[[record]]
compound = "CN(C)C(=O)CN(C)C(=O)OCC(CN)N1C(=O)C=CC1=O (stereo not shown)"
value_observed = 7.88

[[record]]
compound = "CN(C)C(=O)CCOCCC(CN)N1C(=O)C=CC1=O (stereo not shown)"
value_observed = 8


Just for reference, patent US20250352659A1 is where these values come from.
